Note to self: these compounds have pKi reported for Adenosine receptor A3 (Homo sapiens, UniProt P0DMS8) in various publications.
Keep in mind that pKi stands for -log10 of concentration in molar terms.

COc1ccc(-c2nc(N)c3nc(-c4ccco4)sc3n2)cc1: 8.33
O=C(Nc1ncc(C(=O)NCCc2ccccc2)c2nc(-c3ccco3)nn12)NC1CCCCC1: 5.37
CNC(=O)[C@@]12C[C@@H]1[C@@H](n1cnc3c(NCCc4ccc(O)c(OC)c4)nc(C#Cc4ccc(F)c(F)c4)nc31)[C@H](O)[C@@H]2O: 8.30
CCC(CO)Nc1nc2nn(C)cc2c2nc(-c3ccco3)nn12 (stereo not given): 7.20

Query: GET /values?readout=pKi&system=Adenosine receptor A3 (Homo sapiens, UniProt P0DMS8)&item= `Nc1nc2cnn(CCc3ccccc3)c2c2nc(-c3ccco3)nn12`
Result: 6.22

Query: GET /values?readout=pKi&system=Adenosine receptor A3 (Homo sapiens, UniProt P0DMS8)&item= `O=C(NCc1ccccc1)Nc1nn(-c2ccccc2)c(=O)c2ccccc12`
Result: 7.53

Query: GET /values?readout=pKi&system=Adenosine receptor A3 (Homo sapiens, UniProt P0DMS8)&item= `CC(=O)Nc1nc2ncccc2n2c(=O)n(-c3ccccc3)nc12`
Result: 6.86

Query: GET /values?readout=pKi&system=Adenosine receptor A3 (Homo sapiens, UniProt P0DMS8)&item= `COc1ccccc1CNc1nc(N)c2nc(-c3cccs3)sc2n1`
Result: 6.56

Query: GET /values?readout=pKi&system=Adenosine receptor A3 (Homo sapiens, UniProt P0DMS8)&item= `CCOC(=O)c1nc(NC(=O)Cc2ccccc2)nc2nn(CCc3ccccc3)cc12`
Result: 4.98

Query: GET /values?readout=pKi&system=Adenosine receptor A3 (Homo sapiens, UniProt P0DMS8)&item= `CNc1nc(NC(=O)Nc2ccccc2)n2nc(-c3ccco3)nc2n1`
Result: 6.24

Query: GET /values?readout=pKi&system=Adenosine receptor A3 (Homo sapiens, UniProt P0DMS8)&item= `Nc1ccc(-n2nc3c(=O)[nH]c(-c4ccccc4)cn3c2=O)cc1`
Result: 7.20

* * *

Protein target, amino acids: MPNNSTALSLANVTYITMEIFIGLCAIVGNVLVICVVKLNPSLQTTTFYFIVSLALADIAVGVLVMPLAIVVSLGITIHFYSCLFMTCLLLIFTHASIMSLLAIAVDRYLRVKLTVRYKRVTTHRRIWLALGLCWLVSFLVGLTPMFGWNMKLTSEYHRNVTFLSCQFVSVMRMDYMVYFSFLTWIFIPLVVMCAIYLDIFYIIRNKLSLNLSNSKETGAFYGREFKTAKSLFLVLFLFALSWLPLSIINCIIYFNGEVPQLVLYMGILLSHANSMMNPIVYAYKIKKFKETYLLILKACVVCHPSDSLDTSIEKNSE
pKi: −log10 of the molar value.
Note to self: these compounds have pKi reported for the protein given by its sequence in various publications.

CCCn1c(=O)c2[nH]c(-c3cc(C)n(CC(=O)Nc4cccc(OC)c4)n3)nc2n(CCC)c1=O: < 6.00
COc1ncc(Nc2ncc(-c3ccncn3)c(-c3ccco3)n2)cn1: < 6.00
Cn1c(=O)c2c(nc3n2CCN(CCc2cccs2)C3)n(C)c1=O: < 5.00
Cn1c(=O)c2c(nc3n2CCCN3CCOC/C=C/c2ccccc2)n(C)c1=O: < 6.00

Query: Using the record for `Nc1nc(-c2ccc(NC(=O)c3ccc(S(N)(=O)=O)cc3)cc2)cn2c(=O)n(-c3ccccc3)nc12` , report its pKi.
Result: < 4.52

* * *

Note to self: these compounds have pKi reported for Adenosine receptor A3 (Homo sapiens) in various publications.
Keep in mind that pKi stands for -log10 of concentration in molar terms.

Example cases with answers are listed next.
COc1ccc(OC)c(-c2cc(NC(C)=O)nc(-c3cc(OC)ccc3OC)n2)c1: 8.20
O=c1oc2c(O)cccc2cc1-c1ccccc1: 5.29
COc1ccccc1CNc1nc(N)c2nc(-c3ccc(C)o3)sc2n1: 6.85
CNc1ncnc2c1ncn2[C@@H]1S[C@H](C(=O)NC2CCC2)[C@@H](O)[C@H]1O: 8.98
Cn1cc2c(nc(N=C(Nc3cccc(Cl)c3)Nc3cccc(Cl)c3)n3nc(-c4ccco4)nc23)n1: 7.05
COc1ccc(C(=O)Nc2nc(-c3ccccc3)cn3cc(-c4ccccc4)nc23)cc1: 7.60

Consider the record given below.
Query: GET /values?readout=pKi&system=Adenosine receptor A3 (Homo sapiens)&item= `CNC(=O)[C@@]12C[C@@H]1[C@@H](n1cnc3c(NC4CC4)cc(C#Cc4ccc(Cl)s4)nc31)[C@H](O)[C@@H]2O`
Result: 8.00

* * *

Note to self: these compounds have pKi reported for Adenosine receptor A3 (Homo sapiens, UniProt P0DMS8) in various publications.
- System Under Test: Adenosine receptor A3 (Homo sapiens, UniProt P0DMS8)
- Sequence (P0DMS8 whole entry): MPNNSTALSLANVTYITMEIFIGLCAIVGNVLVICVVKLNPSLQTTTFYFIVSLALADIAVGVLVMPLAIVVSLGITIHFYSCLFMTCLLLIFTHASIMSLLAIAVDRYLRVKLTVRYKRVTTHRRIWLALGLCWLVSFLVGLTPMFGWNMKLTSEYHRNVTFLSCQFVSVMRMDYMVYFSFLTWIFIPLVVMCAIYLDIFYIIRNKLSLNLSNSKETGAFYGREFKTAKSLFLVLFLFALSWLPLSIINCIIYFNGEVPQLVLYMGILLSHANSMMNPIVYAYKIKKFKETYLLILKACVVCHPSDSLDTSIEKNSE
pKi: −log10 of the molar value.
Label Satisfied for high-side pKi (at or above 8) and Not satisfied for low-side pKi (below it).

Here's what some known entries look like.
CCOC(=O)c1nc(NC(=O)c2ccccc2)nc2nn(C)cc12: Not satisfied
CCCN1C(=O)N2C[C@@H](CC)N=C2c2[nH]c(C34CCC(O)(CC3)CC4)nc21: Not satisfied

Query: Could you tell me if the measured pKi of `CCCn1c(=O)c2[nH]c(-c3nn(CC(=O)Nc4ccc(Cl)cc4)c(C)c3Cl)nc2n(CCC)c1=O` reaches 8 or more?
Result: Not satisfied

Query: Could you tell me if the measured pKi of `Cn1c(=O)c2c(nc3n2CCN(CCc2cc(C(F)(F)F)ccc2F)C3)n(C)c1=O` reaches 8 or more?
Result: Not satisfied

Query: Could you tell me if the measured pKi of Clc1ccc(C#CC2=NC3=NC=NC3C(NCCc3ccccc3)=N2)s1 (stereo not drawn) reaches 8 or more?
Result: Not satisfied

Query: Could you tell me if the measured pKi of `CCCn1c(=O)c2[nH]c(-c3cn[nH]c3)nc2n(CCC)c1=O` reaches 8 or more?
Result: Not satisfied

Query: Could you tell me if the measured pKi of `CNc1nc(C#Cc2ccc(Cl)s2)nc2c1ncn2[C@H]1[C@H](O)[C@H](O)[C@]2(C(=O)OCCc3ccccc3)C[C@H]12` reaches 8 or more?
Result: Not satisfied

Query: Could you tell me if the measured pKi of `CNc1nc(Cl)nc2c1ncn2[C@@H]1O[C@H](C(=O)N(C)C)[C@@H](O)[C@H]1O` reaches 8 or more?
Result: Not satisfied

Query: Could you tell me if the measured pKi of `Cc1ccc(-n2cc3c(n2)c(NC(=O)Cc2ccccc2)nc2ccccc23)cc1` reaches 8 or more?
Result: Satisfied

Query: Could you tell me if the measured pKi of `CCCn1c(=O)c2[nH]c(-c3cc(OCC(=O)Nc4ccc(C)cn4)nn3C)nc2n(CCC)c1=O` reaches 8 or more?
Result: Not satisfied

Query: Could you tell me if the measured pKi of `Fc1ccc(CNc2nc(NCc3ccccc3)nc3nc(-c4ccco4)nn23)cc1` reaches 8 or more?
Result: Not satisfied

Query: Could you tell me if the measured pKi of `c1ccc(Oc2nc(NC3CCCCC3)n3nc(-c4ccco4)nc3n2)cc1` reaches 8 or more?
Result: Not satisfied

Query: Could you tell me if the measured pKi of `C=CCCn1c(=O)c2c(nc3cc(OC)ccn32)n(Cc2ccccc2)c1=O` reaches 8 or more?
Result: Satisfied

Query: Could you tell me if the measured pKi of `CCNC(=S)[C@H]1O[C@@H](n2cnc3c(N)ncnc32)[C@H](O)[C@@H]1O` reaches 8 or more?
Result: Not satisfied

Query: Could you tell me if the measured pKi of `CCCOc1ccc(-c2cn(-c3nc(NC)c4ncn([C@@H]5O[C@H](CO)[C@@H](O)[C@H]5O)c4n3)nn2)cc1` reaches 8 or more?
Result: Not satisfied

Query: Could you tell me if the measured pKi of `CNC(=O)[C@@]12C[C@@H]1[C@@H](n1cnc3cnc(C#Cc4ccc(F)c(F)c4)nc31)[C@H](O)[C@@H]2O` reaches 8 or more?
Result: Not satisfied

Query: Could you tell me if the measured pKi of `Nc1nc(-c2cccc(CO)c2)nc2sc(-c3ccccc3)nc12` reaches 8 or more?
Result: Satisfied
